Tested on: SULT1C1
Assay: SULT1C1 enzyme activity assay: sulfate conjugation of 4-nitrophenol with 35S-PAPS, COS-1 cytosol of recombinant allozymes
Assay type: biochemical, human
Conditions: recombinant allozyme in COS-1 cytosol; 10 mM 4-NP, 0.4 μM 35S-PAPS, pH 7.4; percentage of wild type SULT1C1 enzyme activity
Observable: % WT activity (%)
Please respond with the number in % and leave the unit unwritten.

Query: Recorded % WT activity for Thr239Ala: SULT1C1 polypeptide having an alanine at amino acid 239 in place of a threonine (protein) MALTSDLGKQIKLKEVEGTLLQPATVDNWSQIQSFEAKPDDLLICTYPKAGTTWIQEIVDMIEQNGDVEKCQRAIIQHRHPFIEWARPPQPSGVEKAKAMPSPRILKTHLSTQLLPPSFWENNCKFLYVARNAKDCMVSYYHFQRMNHMLPDPGTWEEYFETFINGKVVWGSWFDHVKGWWEMKDRHQILFLFYEDIKRDPKHEIRKVMQFMGKKVDETVLDKIVQETSFEKMKENPMANRSTVSKSILDQSISSFMRKGTVGDWKNHFTVAQNERFDEIYRRKMEGTSINFCMEL , please?
Result: 52.6
